Biological target: Ba/F3 EGFR-Del19/T790M (Homo sapiens, UniProt P00533, T790M, cells depend on it, form not given)
Sequence (P00533 with tags, fused parts or gaps DEL746-750/T790M, form open): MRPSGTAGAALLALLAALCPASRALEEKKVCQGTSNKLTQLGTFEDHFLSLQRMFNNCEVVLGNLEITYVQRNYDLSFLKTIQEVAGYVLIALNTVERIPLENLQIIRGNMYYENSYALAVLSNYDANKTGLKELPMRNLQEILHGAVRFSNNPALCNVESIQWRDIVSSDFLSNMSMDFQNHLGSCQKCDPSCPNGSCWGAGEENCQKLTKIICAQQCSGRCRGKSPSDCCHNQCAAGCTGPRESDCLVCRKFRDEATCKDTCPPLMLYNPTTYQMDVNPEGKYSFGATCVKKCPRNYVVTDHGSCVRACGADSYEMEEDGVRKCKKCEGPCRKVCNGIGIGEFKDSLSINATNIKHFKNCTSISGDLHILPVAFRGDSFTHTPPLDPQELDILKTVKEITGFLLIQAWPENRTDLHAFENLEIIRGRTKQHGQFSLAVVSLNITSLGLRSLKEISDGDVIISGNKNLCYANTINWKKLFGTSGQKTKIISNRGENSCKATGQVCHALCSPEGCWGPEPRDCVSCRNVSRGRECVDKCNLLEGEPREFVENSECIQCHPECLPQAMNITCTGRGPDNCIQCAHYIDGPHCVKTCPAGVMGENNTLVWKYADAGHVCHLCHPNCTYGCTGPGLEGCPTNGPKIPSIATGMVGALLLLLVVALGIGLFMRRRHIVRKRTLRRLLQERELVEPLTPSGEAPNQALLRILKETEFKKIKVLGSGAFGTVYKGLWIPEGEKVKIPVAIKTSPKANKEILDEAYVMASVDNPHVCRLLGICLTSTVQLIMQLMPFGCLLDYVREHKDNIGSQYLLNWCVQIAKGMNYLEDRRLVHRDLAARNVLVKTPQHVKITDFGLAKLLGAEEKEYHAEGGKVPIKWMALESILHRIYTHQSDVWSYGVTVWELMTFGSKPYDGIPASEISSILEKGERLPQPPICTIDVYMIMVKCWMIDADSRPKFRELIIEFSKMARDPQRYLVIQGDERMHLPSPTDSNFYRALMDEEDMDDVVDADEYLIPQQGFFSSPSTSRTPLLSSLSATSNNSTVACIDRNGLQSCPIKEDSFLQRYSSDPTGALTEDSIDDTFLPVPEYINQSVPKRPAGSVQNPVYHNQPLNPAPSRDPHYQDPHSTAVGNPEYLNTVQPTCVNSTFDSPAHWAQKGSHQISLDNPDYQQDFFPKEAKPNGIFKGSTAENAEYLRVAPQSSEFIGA
Assay: Ba/F3 viability assay (CellTiter-Glo), DT
Assay type: cell-based
Settings: anti-proliferation, read-out: BaF3 DT IC50
property-measured: GI50

Look over these answered cases.
>>> result("C[C@H]1CCOc2c(cnn2C)-c2nccc(n2)Nc2cc3c(cn2)c(-c2ccn(C)c2)nn31")
"< 0.01 µM"
>>> result("Cc1cc(OCCN(C)C)cc(-c2nn3c4cc(ncc24)Nc2ccnc(n2)-c2cnn(C)c2OCC[C@@H]3C)c1")
"0.01 to 0.1 µM"
>>> result("C[C@H]1CCOc2c(cnn2C)-c2nccc(n2)Nc2cc3c(cn2)c(-c2ccc(CN(C)CCCF)n2C)nn31")
"< 0.01 µM"
>>> result("CCN1CCc2c(cc(-c3nn4c5cc(ncc35)Nc3ccnc(n3)-c3cnn(C)c3OCC[C@@H]4C)n2C)C1C (stereo partly shown)")
"< 0.01 µM"
>>> result("C[C@H]1CCOc2c(cnn2C)-c2nccc(n2)Nc2cc3c(cn2)c(-c2cccc(CN4CCOCC4)c2)nn31")
"0.01 to 0.1 µM"

Req: What does the data say about its GI50? Entry: `C[C@H]1CCOc2c(cnn2C)-c2nccc(n2)Nc2cc3c(cn2)c(-c2ccc(CN4CCN(C)CC4)n2C)nn31`
Resp: < 0.01 µM

Req: I would be grateful if you could share the reported GI50 for CN(C)CC1CCCN1c1nn2c3cc(ncc13)Nc1ccnc(n1)-c1cnn(C)c1OCCC2 (stereo not shown) .
Resp: 0.1 to 1 µM

Req: Given the entry CCn1cc(C(=O)N2CCN(C)CC2)cc1-c1nn2c3cc(ncc13)Nc1ccnc(n1)-c1cnn(C)c1OCCC2C (stereo not shown) , report its measured GI50.
Resp: 0.1 to 1 µM

Req: Dear colleague, I am looking for the recorded GI50 of the following compound: `C[C@H]1CCOc2c(cnn2C)-c2nccc(n2)Nc2cc3c(cn2)c(-c2ccc(CN4CC[C@H](N(C)C)C4)n2C)nn31`
Resp: < 0.01 µM

Req: Query: GI50; subject: `C[C@H]1CCOc2c(cnn2C)-c2nccc(n2)Nc2cc3c(cn2)c(-c2cnn(CCN4CCOCC4)c2)nn31`
Resp: 0.01 to 0.1 µM

Req: Looking for the measured GI50 of `C[C@H]1CCOc2c(cnn2C)-c2nccc(n2)Nc2cc3c(cn2)c(-c2cc(F)cc(OCCN(C)C)c2)nn31` , can you help?
Resp: 0.01 to 0.1 µM

Req: Query: GI50; subject: `C[C@H]1CCOc2c(cnn2C)-c2nccc(n2)Nc2cc3c(cn2)c(N2CC[C@@H](CN(C)CCF)C2)nn31`
Resp: < 0.01 µM

Req: Entry under review: CN1CCN(C(=O)C2CCN(c3nn4c5cc(ncc35)Nc3ccnc(n3)-c3cnn(C)c3OCCC4)C2)CC1 (stereo not shown) . Reported GI50?
Resp: 0.1 to 1 µM

Req: // returns reported GI50 for input `C[C@H]1CCOc2c(cnn2C)-c2nccc(n2)Nc2cc3c(cn2)c(-c2ccc(CN(C)C)n2C)nn31`
Resp: < 0.01 µM

Req: Which value of GI50 has been reported for `CCn1cc(-c2nn3c4cc(ncc24)Nc2ccnc(n2)-c2cnn(C)c2OCC[C@@H]3C)cc1CN1CCOCC1` in the records?
Resp: < 0.01 µM

Req: Return reported GI50; argument: `CC(C)N1CCN(Cc2ccc(-c3nn4c5cc(ncc35)Nc3ccnc(n3)-c3cnn(C)c3OCC[C@@H]4C)n2C)CC1`
Resp: < 0.01 µM
